Could you please report measured inhibition for the items listed next?
assay: inhibitors of Chlamydomonas gravitaxis, primary screen, whole organism, Chlamydomonas reinhardtii, WT vs cilia-less mutant, absorbance, 96-well (AID 463189); settings: OD600 absorbance, 2 days, at 10 µM, hits give high values;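 also: 0% = wild type cc124 cells in DMSO and 100% = ciliumless bld1 mutant cells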
Please give a number only; it is taken to be in %.

Which inhibition value belongs to C/C=C/c1ccccc1OCc1ccc(C(=O)O)o1 ? -4.22

Quick one: inhibition for CCCCOc1ccc(C(=O)Nc2ccc(N3CCN(C(C)=O)CC3)cc2)cc1 ? 3.64

Look at this molecule and give its reported inhibition. Clc1ccc(-c2nnc3sc(Cc4cccs4)nn23)c(Cl)c1 37.7

Given the entry CCCC(=O)Nc1sc2c(c1C#N)CCCC2 , report its measured inhibition. -10.7

---

target: Dual specificity protein phosphatase 6 (Homo sapiens) (UniProt Q16828); experiment: DUSP6 inhibitors restoring Erk phosphorylation by chemical complementation, primary imaging in DUSP6-transfected HeLa (AID 609); details: HeLa MKP-3 transfected, phospho-Erk imaging KS statistic; at 10 µM; hits give high values; cells stimulated with TPA for 15 min;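 also: phospho-Erk level distribution per well compared with pooled transfected vehicle control wells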
Sequence (Q16828 whole entry, looked up): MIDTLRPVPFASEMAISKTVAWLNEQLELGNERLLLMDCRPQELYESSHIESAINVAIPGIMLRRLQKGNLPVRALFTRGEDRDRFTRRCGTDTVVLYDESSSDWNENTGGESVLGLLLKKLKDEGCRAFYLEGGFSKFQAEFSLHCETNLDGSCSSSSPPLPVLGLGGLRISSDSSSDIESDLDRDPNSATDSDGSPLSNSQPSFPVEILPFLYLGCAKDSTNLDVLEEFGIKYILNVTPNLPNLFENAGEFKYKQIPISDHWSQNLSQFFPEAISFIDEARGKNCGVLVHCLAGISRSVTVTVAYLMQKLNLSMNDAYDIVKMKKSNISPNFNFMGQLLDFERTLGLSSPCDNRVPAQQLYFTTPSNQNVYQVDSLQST
REPORTED METRIC: inhibition (%)
Express it in %; write the number only.

Can you look up the measured inhibition of CCCCN1C[C@H](O)[C@@H](O)[C@H](O)[C@H]1CO for me? 15.3

// query inhibition value for entry N#CCSc1nc2c(cc1C#N)CCCCCC2 2.92

Recorded inhibition of CC(C)c1nc(NCC2CCCO2)c(C#N)c2c1COC(C)(C)C2 (centres undefined) , please. -8.59

# query: inhibition of entry Cc1ccc(N(CC(=O)O)C2SC(=O)NC2=O)cc1 (centres undefined) 18.2

Can you share its inhibition? I mean this molecule: CSC1=C(C#N)C(c2ccc(C)s2)CC(=O)N1 (centres undefined) 13.2

Item under review: CC(C)(C)c1ccc(C(O)CCCN2CCC(C(O)(c3ccccc3)c3ccccc3)CC2)cc1 (centres undefined) . Reported inhibition? 21.2

What value of inhibition has been recorded for this entry: Cn1c(-n2c(-c3ccco3)nc3ccccc3c2=O)nc2ccccc21 8.31

Dear colleague, I am looking for the recorded inhibition of the following molecule: N#CCCSCc1ccc(OCC(=O)O)cc1 5.95

Fill in: inhibition of Cn1c2c(c(=O)n(C)c1=O)C(NC(=O)C(C)(C)C)(C(F)(F)F)C(=O)N2 (centres undefined) is ___ 5.26

Item under review: COc1ccc(Nc2cc(C)nc3ccccc23)cc1 . Reported inhibition? 4.72

Entry under review: O=C(O)C1CCCCN1S(=O)(=O)c1cccc2nsnc12 (centres undefined) . Reported inhibition? -6.06

// query inhibition value for entry Cc1cc(C(F)(F)F)c(C#N)c(SCC(=O)NC2CC2)n1 15.5

Please look up its inhibition: CCN(CC)CCN1C(=O)C(=O)/C(=C(/O)c2ccc(F)cc2)C1c1ccncc1 (centres undefined) -11.5

Entry under review: COc1cccc(Cn2c(NCC(C)C)nc3c2c(=O)n(C)c(=O)n3C)c1 . Reported inhibition? -0.624

Which value of inhibition has been reported for COC(=O)CN(c1nc(C)cc(OC)n1)S(=O)(=O)c1ccccc1 in the records? 3.56

I'd like to know its inhibition. The molecule in question is CC(=O)OCC(=O)[C@@]1(O)CC[C@H]2[C@@H]3CCC4=CC(=O)CC[C@]4(C)[C@H]3[C@@H](O)C[C@@]21C 10.2

Given the molecule O=C(c1ccc(=O)oc1)N1CCOCC1 , what is its reported inhibition? -6.59

Field request: inhibition | item: CCOC(=O)CNS(=O)(=O)c1cc(-c2nn(C)c(=O)c3ccccc23)ccc1C 8.76

// lookup inhibition for O=C(NC1(C(F)(F)F)C(=O)Nc2c1c(=O)[nH]c(=O)n2Cc1ccco1)C1CCCCC1 (centres undefined) 3.5

Need inhibition of COCCNC(=O)c1c(N)n(/N=C/c2cccs2)c2nc3ccccc3nc12 , thanks. 1.75

Report inhibition for O=C(/C=C/c1ccccc1)c1ccccc1 please. 23.2

What value of measured inhibition is listed for COc1ccc(C2C(C#N)=C(SC)NC3=C2C(=O)CC(C)(C)C3)cc1 (centres undefined) ? -12.6

# inhibition lookup, item Cc1c(C=NCCOCc2ccccc2)cnn1C -1.98

What does the data say about its inhibition? Entry: COc1cc([C@@H]2c3cc4c(cc3[C@H](O)[C@H]3COC(=O)[C@H]23)OCO4)cc(OC)c1OC -6.41

Tell me the measured inhibition of CCCCOc1ccc(CSC(CC(=O)O)C(=O)O)cc1 (centres undefined) , please. 3.5

So what's the measured inhibition for this one? Cc1ccc(CC2CC(=O)N(c3ccc4c(c3)OCCO4)C2=O)cc1 (centres undefined) 15.1

For the molecule Cc1csc(NC(=O)CSc2nsc(SCC(=O)Nc3nc(C)cs3)c2C#N)n1 , what inhibition is on record? 6.51

Can you share its inhibition? I mean this molecule: N#Cc1nc(-c2ccccc2Cl)oc1N1CCCCC1 20.2

Tell me the measured inhibition of COc1ccc(C(=O)Cn2c(Br)nc3c2c(=O)n(C)c(=O)n3C)cc1OC , please. -1.75

Hello, the source for this data is PubChem BioAssay, in case you need it.
